- assay_comment: yeast display, Sf9 membrane polyspecificity reagent, FACS + sequencing; frameworks hold sequencing errors

seq_string	polyreactivity (PSR sort gate)
QVELVESAGGLVQAGGSLRLICAASGLTFDAYAMGWYRQAPGKERELVAAISSGGNTYYADSVKWRFTISRDNAKNTVYLQMNSLKPEDTAVYYCAATFIQVVVNVQLYDYDYWGQGTQVTVSS	low polyreactivity
QVQLVESGGGLVQAGGSLRLSCAASGFIFSLYAMGWYRQAPGKERELVAAITRGGSTKYADSVKGRFTISRDNAKNTVYLQMNSLKPEDTAVYYCAARYNGKLNWGQGTQVTVSS	high polyreactivity
QVQLEESGGGLVQAGGSLRLSCAASGRTFKLNAMGWYRQAPGKERELVAAISRNGGSTYYADSVKGRFTISRDNAKNTVYLQMNSLKPEDTAVYYCAAVRHGVSLAGYYWGQGTQVTVSS	high polyreactivity
QVQLVESGGGLVQAGGSLRLSCAASGSTFSRYVMVWYRQAPGKERELVAAISRSGSTYYADSVKGRFTISRDNAMNTVYLQMNSLKPEDTAVYYFDATGSKSAGYGYWGQGTQVTVSS	high polyreactivity
QVQLVESGGGLVQAGGSLRLSSAASGLTFHRYAMGWYRQAPGKERELVAGISWSGASTYFADSVKGRFTISRDNAKNTVYLQMNSLKPEDTAVYYCAAVVPGLAYYRHGYWGQGTQVTVSS	high polyreactivity
QVQLVDSGGGLVQAGGSLRLRCAASGSTFRRYAMGWYRQAPGKERELVAAISNRDGSTYYADSVKGRFTISRDNAKNTVYLQMNSLKADDTAVYYCNAYGYGDYSFLKYRFEYDYWGQGTQVTVSS	low polyreactivity
QVQLVESGGGLVQAGGSLRLSCAGSGFIFTDYAMGWYRQAPGKERELVATISWSGSSTYYADSVKGRFTISRDNAKNTVYLQMNSLKPEDTAVYYCAAEFWYTYPYLVDYWGQGTQVTVSS	low polyreactivity
QVQLVESGGGLVQAGGILRLSCAASGRTFGINAMGWYRQAPGKERELVARIRKTVGSTYYADSVKGRFTISRDNAKNTVYLQMNSLKPEDTAVYYCAADLRYGYLYPYDSWGQGTQVTVSS	high polyreactivity
QVQLVESGGGLVQAGGSLRLSCAASGSYTMGWYRQAPGKERELVAAISKSCGSTYYADSVKGRFTISRDNAKNTVYLQMNSLKPDDTAVYYCAAVGWWGTYDYWGQGTQVTVSS	high polyreactivity
QVQLVESGGGLVQAGGSLRLSCAASGSIFGYYAMGWYRQAPGKERELVAAITRVSSTNYADSVKGRFTISRDNAKYTVYLHMNSLKPEDTAVYYCAARTLRYYQGNTWGDDYWGQGTQVTVSS	high polyreactivity
QVQIVESGGGLDQAGGSLRLSCAASGSTFVLNPMGWYRQAPGKERGMVAAISSGGRTYYADSVKGRFTISRDNAKNTVYLQMNSLKPEDTAVYYCAANPYRGGHGTLFGYWGQGSQVTVSS	high polyreactivity
QVQLVESGGGLVQAGGSLRLSCAASGRIFAHYAMGWYRQAPGKERELVAAIRRSGVSTYYADSVKGRFTSSRDNAKNTVYLQMNSLKPEDTAVYYCNARAYVSPYDYWGQGTQVTVSS	low polyreactivity
QVQLVESGGGLVQAGGSLRLSCAASGFTFTANAMGWYRQAPGKERELVAAITRNGGRTYYADSVKGRFTLSRDNAKNNVYLQMNSLKPEDTAVYYCAKPNSQRIHDDYDYWGQGTQVTVSS	high polyreactivity
QVQLVESGGGLVQAGGSLRLSCAASGSTFLVYAMGWYRQAPGKEMEFVAAISWSGGSTFYADSVKGRFTISRDNAKNTVYLQMNSLKPVDTAVYYCAARQAGYSGRKLYYWGQGTQVTVSS	low polyreactivity
QVQLVESGGGLVQAGGSLRLSCAASGRIFGYNTMGWYRQAPGKERELVAAINSGGRTYYADSVKGRFTISRDNAKNTVYLQMNSLKPEDTAVYYCAKPGLYFATFKKYDYWGQGTQVTVSS	high polyreactivity
QVHLVDSGGGLVQAGGSLRLSCPASGFIFGLYVMGCYRQSPGKERELVAAITTSVGSTYYADSVKGRFTISRDNAKNTVYLQMNSLKPEDTSVYYCAKTSGTIDYDYWGQGTQVTVSS	low polyreactivity
QVQLVESGGGLVQAGGSLRLSCAASGIILAYYAMRWYRQAPGKERELVASINRSGGSTYYADSVKGRFTISRDNAKNTVYFQMNSMKPEDTAVYYCDATTRGVGQWWYRYYYWGQGTQVTVSS	high polyreactivity
PVQLVESGGGLVQAGGSLRLSCAASGNIFGVYPMGWYRQAPGKERELVAVITSSGSTYADSVKGRFTISRDNAKNTVFLQMNSLKPEDTAVYYCNTDGYYHPHGFDYYRYYYWGQGTQVTVSS	high polyreactivity
QVQLVESGGGLVQAGGSLRLSCAASGRTFFPNAMGWYRQAPGKERELVAAISSGGSTYYADSVKGRFTISRDNAKNTVYLQMNSLKPEDTAVYYCAVYGFYSKYGYWGQGTQVTVSS	high polyreactivity
QVQLVESGGGLVQAGGSLRLSCAASGFTFTYNDMGWYIQAPGKEREFVAAISSTGGSTYYADSVKGRFTISRDNAKNTVYLQMNSLKAEDTAVYYCAAEDSWYWDAWFDYWGQGTQVTVSS	low polyreactivity
QVQLVESGGGLVQAGGSLRLSCAASGSIFWVYAMGWYRQAPGKERELVAVIDWSGDSTYYADSVKGRFTISRDNAKNTVYLQMNSLKPEDTAVYYCSAEVYVDYTGYSYFDYPYDYWGQGTQVTVSS	low polyreactivity

---

- assay_comment: yeast display, Sf9 membrane polyspecificity reagent, FACS + sequencing; frameworks hold sequencing errors
parameter: polyreactivity (PSR sort gate)

seq_string	parameter	val
QVQLVESGGGLVQAGGSLRLSCAASGRTLRRYAMGWYRQAPGKERELVAAITSGGTTNYADSVKGRFTISRDNAKNTVYLQMNSLKPEDTAVYYCNARKSSGLSSYDWYSWEYGYWGQGTQVTVSS	polyreactivity (PSR sort gate)	low polyreactivity
QVQLVESGGGLVQAGGSLRLSCAASGFTFSDNAMGWYRQAPGKERELVAAISRSGGRTYYADSVKGRFTISRDNAKNTVYLQMNSLKPEDTAVYYCAAYQYGMDYWGQGTQVTVSS	polyreactivity (PSR sort gate)	high polyreactivity
QVQLVESGGGLVQAVGSHRLICAASGSIFPYYAMGWYRQAPGKERELVATITYRGGSTNYADSVKGRFTISRDNAKNTVYLQMNSLKPEDTAVYYCAAEYYSIRYGPHSIEVYGMDYWGQGTHVTVSS	polyreactivity (PSR sort gate)	low polyreactivity
QVQLEESGGGLVQAGGSLRLSCAASGLIFSAYAMGWYRQAPGKERELVAAIRTGGSTYYADSVKGRFTFSRDNAKNTVYLQMNSLKPVDTAVYYCAASQKGYFYYNVYYWGQGTQVTVSS	polyreactivity (PSR sort gate)	high polyreactivity
QVQLVESGGGLVQAGGSLRLSCAASGSTFGHNAMGWYRQAPGKERELVAAIDSGDGTTYADSVKGRFTISRDNAKNTVYLQMNSLKPEDTAVYYCAATTDRAEDDDNIGGYWGQGTQVTVSS	polyreactivity (PSR sort gate)	low polyreactivity
QVQLVESGGGLVQAGGSLRLSCAASGSTFLINVLGWYRQAPGKERELVARISWRAATTYYADSVKGRFTISRDNAKNTVYLPMYSLQPEDTAVYYCADDLYKRGFDYWGQGTQVTVSS	polyreactivity (PSR sort gate)	low polyreactivity
QVQLVESGGGLVQAGGSLRLSCAASGFTFKENTIGRYRQAPGKEMELVAAMSWSGGGTYYADSVKGRFTISRDNGKNTVYLQMNSLKPEDTAVYYCAALQRRDHNGDYWGQGTQVTVSS	polyreactivity (PSR sort gate)	low polyreactivity
QVQLVESGGGLVQAGGSHRLSCAASGRTFAPNAMGWYRQAPGKERELVAAISSVGITYYADSVNGRFTISRDNAKNTVYLQMNSLNPEDTAVYYCAKVRKTRSITDGYGYWGQGTQVTVSS	polyreactivity (PSR sort gate)	low polyreactivity
QVQLVESGGGLVQAGGSLRLSCAASGFTFQYYAMGWYRQAPGKERELVAAISRGGSTNYADSVKGRFTISRDNAKNTVYLQMNSLKPEDTAVYYCARLGWTYLWGYDSWGQGTQVTVSS	polyreactivity (PSR sort gate)	high polyreactivity
QVQLVESGGGLVQAGGSLRLSCAASVRIFGSNVMGWYRQAPGKERELVASISSGGTTYYADSVKGLFTISRDNAKNTVYLQMNSLKPEDTAGYYCAKQWTRIYQYRWYPGTRTGYDYWGHGTQVTVSS	polyreactivity (PSR sort gate)	high polyreactivity
QVQLVVSGGGLVQAGGSLRLSCAASGIIFPFYVMGWYRQAPGKERELVAAITWSGDGTYYADSVKGRFTISRDNAKNTVYLQMNSLKPEDTAVYYCAAQWYYGGVKYYYWGQGTQVTVSS	polyreactivity (PSR sort gate)	low polyreactivity

Where these numbers come from: the nanobody polyreactivity screen of Harvey et al. (2022)
